# Assay Info: BSK_3C_TissueFactor: BioMAP Diversity Plus: 3C Assay for Tissue Factor Biomarker Activity (AID 2282997)
# Condition Label: BioMAP 3C HUVEC, tissue factor biomarker readout; actives raise or lower the signal
Activity calls are given as the source filed them. The calls were made as follows: active = hit-call score of the fitted dose curve at least 0.9, where 1 is the maximum; inactive = score below 0.9.
# valid calls are active, inactive; nothing else

1. FC(F)=C(F)C(F)(F)C(F)(F)C(F)(F)C(F)(F)C(F)(F)C(F)(F)F ... inactive
2. CCCCCOC(C)=O ... inactive
3. C[C@]12C=CC(=O)C=C1CC[C@H]1[C@@H]3C[C@@H](O)[C@](O)(C(=O)CO)[C@@]3(C)C[C@H](O)[C@@]12F ... inactive
4. CCc1cccc(CC)c1N ... inactive
5. NC(=O)N1c2ccccc2C=Cc2ccccc21 ... inactive
6. COCc1nnc(-c2ccc[n+]([O-])c2)n1-c1c(Cl)c(Cl)cc2[nH]c(=O)c(=O)[nH]c12 ... inactive
7. C=CCc1cc(S(=O)(=O)c2ccc(O)c(CC=C)c2)ccc1O ... active
8. Cn1cc[nH]c1=S ... inactive
9. CC(C)C(=O)Nc1ccc([N+](=O)[O-])c(C(F)(F)F)c1 ... inactive
10. O=C(NO)C1(NS(=O)(=O)c2ccc(Oc3ccc(F)cc3)cc2)CCOCC1 ... inactive

Req: Given CCc1ccc(O)c(C(C)(C)C)c1 , state the outcome it received in this test.
Resp: active

Req: Given OC(Cn1cncn1)(Cn1cncn1)c1ccc(F)cc1F , state the outcome it received in this test.
Resp: inactive

// provenance: PubChem BioAssay (EPA / NIEHS)
